Source: patent US8722649B2

pKi overview
biological target: human LPA1 (Homo sapiens); construct: expressed in transfected cells; experiment: Ca2+ mobilization assay, LPA1; format: cell-based; details: antagonist mode vs 200 nM LPA; read-out: LPA1 (Ki)
Sequence (Q92633 whole entry): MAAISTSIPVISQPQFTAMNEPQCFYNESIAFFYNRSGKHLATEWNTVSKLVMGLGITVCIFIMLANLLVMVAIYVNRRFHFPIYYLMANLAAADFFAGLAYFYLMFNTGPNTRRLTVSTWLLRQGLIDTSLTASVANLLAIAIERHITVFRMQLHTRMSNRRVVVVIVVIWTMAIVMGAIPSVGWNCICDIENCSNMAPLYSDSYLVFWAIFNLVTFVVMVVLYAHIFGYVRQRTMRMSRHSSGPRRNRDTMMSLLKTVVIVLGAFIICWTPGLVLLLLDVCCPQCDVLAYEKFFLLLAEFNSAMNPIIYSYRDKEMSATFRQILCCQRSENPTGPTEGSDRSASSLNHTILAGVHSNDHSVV
Scale for pKi: -log10 of concentration given in mol/L; no unit attached.

Solved entries:
{"compound": "CCCCCCCCCCCCCCCC(=O)OC[C@@H](O)CC(Cl)P(=O)(O)O (mixture of isomers) [Compound 18b]", "measured on": "human LPA1 (Homo sapiens)", "pKi": 6.04}
{"compound": "CCCCCCCCCCCCCCCC(=O)OC[C@@H](O)CC(Br)P(=O)(O)O (mixture of isomers)", "measured on": "human LPA1 (Homo sapiens)", "pKi": 6.12}

Now look at this one.
Problem: Name the recorded pKi for CCCCCCCC/C=C\CCCCCCCC(=O)OC[C@@H](O)CC(Br)P(=O)(O)O (mixture of isomers) [Compound 19a] .
Solution: 6.16

----------
Target: human LPA4 (Homo sapiens)
Sequence (Q99677 whole entry): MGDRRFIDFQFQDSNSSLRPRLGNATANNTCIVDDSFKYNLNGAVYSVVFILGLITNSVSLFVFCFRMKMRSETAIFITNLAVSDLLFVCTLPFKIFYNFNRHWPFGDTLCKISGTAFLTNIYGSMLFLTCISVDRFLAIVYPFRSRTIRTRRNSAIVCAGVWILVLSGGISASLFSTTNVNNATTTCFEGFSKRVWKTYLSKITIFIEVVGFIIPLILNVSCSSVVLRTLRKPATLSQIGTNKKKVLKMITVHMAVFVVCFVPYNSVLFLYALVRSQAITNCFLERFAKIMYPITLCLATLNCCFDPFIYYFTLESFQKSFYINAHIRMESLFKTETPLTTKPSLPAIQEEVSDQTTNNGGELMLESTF
Assay: Ca2+ mobilization assay, LPA4 in CHO cells
Conditions: CHO cells stably expressing LPA4; agonist mode
Protocol: Receptor activation using Ca^2+ mobilization assay for diastereomers of 1 (also represented as 19b). The rat hepatoma (RH7777) cell lines individually expressing either LPA1, LPA2, LPA3 or LPA5 receptors and Chinese hamster ovary (CHO) cell line were analyzed to examine agonism and antagonism. […] Receptor activation using Ca^2+ mobilization assay. […] Using a FLEXStation (Molecular Devices, Sunnyvale, Calif.), changes in intracellular Ca^2+ concentration were monitored. […]
# Lookup of reported EC50 keyed by entry

Known results for compounds:
{"compound": "CCCCCCCCCCCCCCCC(=O)OCC(O)CC(O)P(=O)([O-])O.[Na+] (mixture of isomers) [Compound 22b, reference compound]", "measurement kind": "EC50", "observed": "> 30 µM"}
{"compound": "CCCCCCCCC=CCCCCCCCC(=O)OCC(O)CC(O)P(=O)([O-])O.[Na+] (mixture of isomers) [Compound 22a, reference compound]", "measurement kind": "EC50", "observed": "> 1.15 µM"}

Problem: API: value(readout= EC50, system= human LPA4 (Homo sapiens), query= CCCCCCCC/C=C\CCCCCCCC(=O)OC[C@@H](O)CC(Br)P(=O)(O)O (mixture of isomers) [Compound 19a] )
Solution: > 30 µM

Problem: Repeat with CCCCCCCCCCCCCCCC(=O)OCC(O)CC(O)P(=O)([O-])O.[Na+] (stereo not shown) [Compound 24a, reference compound]
Solution: > 30 µM

Problem: What would you report for CCCCCCCC/C=C\CCCCCCCC(=O)OCC(O)CCP(=O)(O)O (stereo not shown) [Compound 20a, reference compound] ?
Solution: 3.9 µM

Problem: Then this compound: CCCCCCCCCCCCCCCC(=O)OC[C@@H](O)CC(Cl)P(=O)(O)O (mixture of isomers) [Compound 18b]
Solution: > 30 µM

Problem: Same question for CCCCCCCCCCCCCCCC(=O)OC[C@@H](O)CC(Br)P(=O)(O)O (mixture of isomers) please.
Solution: > 30 µM

----------
Molecular target: human LPA3 (Homo sapiens, UniProt Q9UBY5)
Construct: expressed in transfected cells
Sequence (Q9UBY5 1-353): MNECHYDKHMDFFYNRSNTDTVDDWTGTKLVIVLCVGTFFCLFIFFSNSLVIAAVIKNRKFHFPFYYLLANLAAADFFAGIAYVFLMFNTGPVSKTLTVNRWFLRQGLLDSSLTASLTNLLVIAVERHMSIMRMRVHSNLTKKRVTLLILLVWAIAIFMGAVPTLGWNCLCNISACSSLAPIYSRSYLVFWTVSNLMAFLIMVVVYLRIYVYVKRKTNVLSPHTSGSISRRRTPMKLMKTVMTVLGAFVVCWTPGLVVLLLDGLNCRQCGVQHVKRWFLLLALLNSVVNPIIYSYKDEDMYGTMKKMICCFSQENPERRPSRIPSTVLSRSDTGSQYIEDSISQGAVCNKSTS
Test: Ca2+ mobilization assay, LPA3
Format: cell-based
Conditions: antagonist mode vs 200 nM LPA; PA = partial antagonist; read-out: LPA3 IC50
measurement kind: pIC50
// pIC50: -log10(molar conc.)

Problem: Look up pIC50: CCCCCCCCCCCCCCCC(=O)OC[C@@H](O)CCP(=O)([O-])O.[Na+] [Compound 20b, reference compound]
Solution: 5.59
